Origin of measurements: ChEMBL document CHEMBL4680223

# experimental-system: UniProt:Q92731
# Sequence (Q92731 whole entry): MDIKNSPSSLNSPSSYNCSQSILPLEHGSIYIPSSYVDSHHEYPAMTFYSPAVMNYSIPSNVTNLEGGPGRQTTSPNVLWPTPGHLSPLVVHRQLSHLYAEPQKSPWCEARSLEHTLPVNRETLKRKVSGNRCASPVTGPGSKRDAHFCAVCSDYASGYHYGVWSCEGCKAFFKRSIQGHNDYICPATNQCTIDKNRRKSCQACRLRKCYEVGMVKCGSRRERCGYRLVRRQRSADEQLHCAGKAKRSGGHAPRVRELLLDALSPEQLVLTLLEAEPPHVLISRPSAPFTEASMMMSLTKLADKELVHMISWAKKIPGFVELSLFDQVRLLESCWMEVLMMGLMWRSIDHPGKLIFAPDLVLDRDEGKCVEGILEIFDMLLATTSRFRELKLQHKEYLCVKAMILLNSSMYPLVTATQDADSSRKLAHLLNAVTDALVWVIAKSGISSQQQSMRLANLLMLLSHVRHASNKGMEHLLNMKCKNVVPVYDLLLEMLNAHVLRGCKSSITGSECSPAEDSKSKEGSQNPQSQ
Under this convention, true (1) denotes IC50 strictly below 200 nM and false (0) denotes IC50 at or above 200 nM.

I'd appreciate it if you could check whether O=C(/C=C/c1ccc(C(=C2CCCCC2)c2ccc(O)cc2)cc1)NCCCCNC(=O)/C=C/c1ccc(C(=C2CCCCC2)c2ccc(O)cc2)cc1 has IC50 smaller than 200 nM. true (1)

Same again, this time with CC/C(=C(/c1ccc(O)cc1)c1ccc(/C=C/C(=O)NCCCNC(=O)/C=C/c2ccc(/C(=C(\CC)c3ccccc3)c3ccc(O)cc3)cc2)cc1)c1ccccc1 true (1)

Next entry: CC/C(=C(/c1ccc(O)cc1)c1ccc(/C=C/C(=O)NCCCCNC(=O)/C=C/c2ccc(/C(=C(\CC)c3ccccc3)c3ccc(O)cc3)cc2)cc1)c1ccccc1 false (0)

Next record, please: CC/C(=C(/c1ccc(O)cc1)c1ccc(/C=C/C(=O)NCCNC(=O)/C=C/c2ccc(/C(=C(\CC)c3ccccc3)c3ccc(O)cc3)cc2)cc1)c1ccccc1 true (1)

Record: O=C(/C=C/c1ccc(C(=C2CCCCC2)c2ccc(O)cc2)cc1)NCCCNC(=O)/C=C/c1ccc(C(=C2CCCCC2)c2ccc(O)cc2)cc1 false (0)

Another compound to look at: CC/C(=C(/c1ccc(O)cc1)c1ccc(/C=C/C(=O)NCCCCCNC(=O)/C=C/c2ccc(/C(=C(\CC)c3ccccc3)c3ccc(O)cc3)cc2)cc1)c1ccccc1 false (0)

Next item in the queue.
Please determine if O=C(/C=C/c1ccc(C(=C2CCCCC2)c2ccc(O)cc2)cc1)NCCNC(=O)/C=C/c1ccc(C(=C2CCCCC2)c2ccc(O)cc2)cc1 is below 200 nM in terms of IC50. false (0)

* * *

Estrogen receptor (Homo sapiens, UniProt P03372) measurements of pIC50, listed per entry.
Sequence (P03372 whole entry): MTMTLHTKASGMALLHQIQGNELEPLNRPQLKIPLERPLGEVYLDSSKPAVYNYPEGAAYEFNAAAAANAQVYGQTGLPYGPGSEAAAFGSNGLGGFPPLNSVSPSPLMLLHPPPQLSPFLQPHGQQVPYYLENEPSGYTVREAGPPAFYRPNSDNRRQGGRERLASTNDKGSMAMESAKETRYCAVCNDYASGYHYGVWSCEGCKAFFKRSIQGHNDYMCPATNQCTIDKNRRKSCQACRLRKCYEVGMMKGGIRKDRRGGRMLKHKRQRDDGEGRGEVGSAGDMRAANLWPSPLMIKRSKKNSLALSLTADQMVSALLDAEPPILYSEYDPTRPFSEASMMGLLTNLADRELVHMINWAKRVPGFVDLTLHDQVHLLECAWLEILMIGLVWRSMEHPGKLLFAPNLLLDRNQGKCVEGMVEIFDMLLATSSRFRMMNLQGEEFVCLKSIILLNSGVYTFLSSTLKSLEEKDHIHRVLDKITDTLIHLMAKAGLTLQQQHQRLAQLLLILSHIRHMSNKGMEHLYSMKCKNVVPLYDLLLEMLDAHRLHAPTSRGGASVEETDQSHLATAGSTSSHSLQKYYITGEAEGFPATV
Note on pIC50: it is the negative log10 of concentration, concentration in mol/L.

Please review the entries below; each comes with its answer.
What value of pIC50 has been recorded for this entry: O=C(/C=C/c1ccc(C(=C2CCCCC2)c2ccc(O)cc2)cc1)NCCCNC(=O)/C=C/c1ccc(C(=C2CCCCC2)c2ccc(O)cc2)cc1 8.78

Moving on to the next molecule: CC/C(=C(/c1ccc(O)cc1)c1ccc(/C=C/C(=O)NCCCCNC(=O)/C=C/c2ccc(/C(=C(\CC)c3ccccc3)c3ccc(O)cc3)cc2)cc1)c1ccccc1 7.72

Proceed to CC/C(=C(/c1ccc(O)cc1)c1ccc(/C=C/C(=O)NCCNC(=O)/C=C/c2ccc(/C(=C(\CC)c3ccccc3)c3ccc(O)cc3)cc2)cc1)c1ccccc1 7.82

Turning now to a further molecule:
Please look up its pIC50: CC/C(=C(/c1ccc(O)cc1)c1ccc(/C=C/C(=O)NCCCNC(=O)/C=C/c2ccc(/C(=C(\CC)c3ccccc3)c3ccc(O)cc3)cc2)cc1)c1ccccc1 8.89

* * *

# assay-details: physchem
# details: water
# Description: Aqueous solubility of compound in water
observable: solubility (µM)
Report only the number, with the unit µM understood.

Consider the following illustrative entries.
Report solubility for O=C(/C=C/c1ccc(C(=C2CCCCC2)c2ccc(O)cc2)cc1)NCCCCCNC(=O)/C=C/c1ccc(C(=C2CCCCC2)c2ccc(O)cc2)cc1 please. 10

And what about the compound CC/C(=C(/c1ccc(O)cc1)c1ccc(/C=C/C(=O)NCCCCNC(=O)/C=C/c2ccc(/C(=C(\CC)c3ccccc3)c3ccc(O)cc3)cc2)cc1)c1ccccc1 ? 19

Next up: CC/C(=C(/c1ccc(O)cc1)c1ccc(/C=C/C(=O)NCCCNC(=O)/C=C/c2ccc(/C(=C(\CC)c3ccccc3)c3ccc(O)cc3)cc2)cc1)c1ccccc1 24

And CC/C(=C(/c1ccc(O)cc1)c1ccc(/C=C/C(=O)NCCCCCNC(=O)/C=C/c2ccc(/C(=C(\CC)c3ccccc3)c3ccc(O)cc3)cc2)cc1)c1ccccc1 ? 34

Also check O=C(/C=C/c1ccc(C(=C2CCCCC2)c2ccc(O)cc2)cc1)NCCNC(=O)/C=C/c1ccc(C(=C2CCCCC2)c2ccc(O)cc2)cc1 6.5

---
Param item = O=C(/C=C/c1ccc(C(=C2CCCCC2)c2ccc(O)cc2)cc1)NCCCCNC(=O)/C=C/c1ccc(C(=C2CCCCC2)c2ccc(O)cc2)cc1 ; retrieve measured solubility. 10

Okay, and O=C(/C=C/c1ccc(C(=C2CCCCC2)c2ccc(O)cc2)cc1)NCCCNC(=O)/C=C/c1ccc(C(=C2CCCCC2)c2ccc(O)cc2)cc1 ? 15.4
